tested on: all mosquito P450s of the panel apart from CYP6Z2 (CYP6M2, CYP6P2, CYP6P3, CYP6P4, CYP9J5); test: in vitro; settings: Anopheles gambiae, pH 7.4, IC50 of DEF activity
pIC50: −log10 of the molar value.
Recorded Metric: pIC50

| Compound | pIC50 |
| --- | --- |
| CC1(C)C(C=C(Cl)Cl)C1C(=O)OCc1cccc(Oc2ccccc2)c1 (mixture of isomers) [Permethrin] | 5.00 to 6.00 |

Let us move to another entry and its pIC50.
Value lookup for pIC50; key = CC1(C)[C@H](C(=O)O[C@H](C#N)c2cccc(Oc3ccccc3)c2)[C@@H]1C=C(Br)Br [Deltamethrin]
5.00 to 6.00

----------
Quick reference: IC50 of the listed items.
biological target: UniProt:A8I285; assay: biochemical; conditions: category of inhibition of DEF metabolism

| Compound | Subject Of Test | IC50 |
| --- | --- | --- |
| CC1(C)C(C=C(Cl)Cl)C1C(=O)OCc1cccc(Oc2ccccc2)c1 (mixture of isomers) [Permethrin] | UniProt:A8I285 | > 10 µM |

Value lookup for IC50; key = CC1(C)[C@H](C(=O)O[C@H](C#N)c2cccc(Oc3ccccc3)c2)[C@@H]1C=C(Br)Br [Deltamethrin]
> 10 µM

Value lookup for IC50; key = CC(COc1ccc(Oc2ccccc2)cc1)Oc1ccccn1 (stereo not drawn) [PPF, pyriproxyfen]
1 to 10 µM

----------
target: CYP6M2 (Anopheles gambiae)
Sequence (Q7Q449 1-499): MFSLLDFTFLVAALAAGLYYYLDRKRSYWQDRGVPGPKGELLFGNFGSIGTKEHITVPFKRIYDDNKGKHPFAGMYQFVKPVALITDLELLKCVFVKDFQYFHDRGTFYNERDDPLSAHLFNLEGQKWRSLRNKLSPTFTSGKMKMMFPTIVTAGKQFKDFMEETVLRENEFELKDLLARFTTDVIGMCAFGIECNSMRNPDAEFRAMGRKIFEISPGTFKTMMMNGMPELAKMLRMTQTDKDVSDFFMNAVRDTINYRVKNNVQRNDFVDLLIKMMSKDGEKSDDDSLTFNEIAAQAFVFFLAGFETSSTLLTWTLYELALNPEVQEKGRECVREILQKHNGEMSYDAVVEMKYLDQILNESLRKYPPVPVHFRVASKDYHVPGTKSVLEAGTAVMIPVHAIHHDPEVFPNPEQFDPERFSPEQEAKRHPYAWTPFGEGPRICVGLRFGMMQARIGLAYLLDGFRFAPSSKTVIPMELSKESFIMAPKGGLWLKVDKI
Sequence (Q86QH5 1-679 partner): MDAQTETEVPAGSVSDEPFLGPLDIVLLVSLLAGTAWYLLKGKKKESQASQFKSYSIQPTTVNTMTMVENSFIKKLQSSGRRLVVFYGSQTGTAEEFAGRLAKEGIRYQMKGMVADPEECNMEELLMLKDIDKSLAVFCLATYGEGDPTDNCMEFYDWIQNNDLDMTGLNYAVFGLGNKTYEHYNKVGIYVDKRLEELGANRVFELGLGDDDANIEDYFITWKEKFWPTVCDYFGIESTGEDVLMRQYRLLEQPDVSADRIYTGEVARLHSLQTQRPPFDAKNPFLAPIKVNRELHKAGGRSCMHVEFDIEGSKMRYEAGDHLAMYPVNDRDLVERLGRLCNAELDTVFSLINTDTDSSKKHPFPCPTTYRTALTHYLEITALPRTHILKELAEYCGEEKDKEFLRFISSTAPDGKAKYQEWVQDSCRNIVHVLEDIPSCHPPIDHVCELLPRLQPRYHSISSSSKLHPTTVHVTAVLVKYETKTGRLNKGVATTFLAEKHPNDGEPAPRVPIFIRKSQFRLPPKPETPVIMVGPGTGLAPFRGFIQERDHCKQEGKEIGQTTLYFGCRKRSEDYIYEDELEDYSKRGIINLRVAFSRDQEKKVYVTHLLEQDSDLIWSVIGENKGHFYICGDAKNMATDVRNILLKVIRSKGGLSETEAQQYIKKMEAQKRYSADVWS
Sequence (Q86QH4 1-128 partner): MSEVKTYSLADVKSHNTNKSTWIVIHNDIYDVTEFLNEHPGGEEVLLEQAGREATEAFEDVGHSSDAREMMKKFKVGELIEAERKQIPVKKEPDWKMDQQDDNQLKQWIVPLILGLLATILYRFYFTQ
Quick reference: IC50 of the listed items.
Answers without a unit are incomplete; give the number and then its unit.

Here are 2 compounds together with their reported answers.
| Compound | Subject Of Test | Reported Measurement |
| --- | --- | --- |
| CC(COc1ccc(Oc2ccccc2)cc1)Oc1ccccn1 (stereo not drawn) | CYP6M2 (Anopheles gambiae) | 14.1 µM |
| CC1(C)C(C=C(Cl)Cl)C1C(=O)OCc1cccc(Oc2ccccc2)c1 (mixture of isomers) | CYP6M2 (Anopheles gambiae) | 8.07 µM |

Let us move to another entry and its IC50.
Value lookup for IC50; key = CC1(C)[C@H](C(=O)O[C@H](C#N)c2cccc(Oc3ccccc3)c2)[C@@H]1C=C(Br)Br
4.24 µM

----------
biological target: CYP6Z2 (Anopheles gambiae); experiment: biochemical; conditions: IC50 of DEF metabolism
Sequence (A8I285 1-492): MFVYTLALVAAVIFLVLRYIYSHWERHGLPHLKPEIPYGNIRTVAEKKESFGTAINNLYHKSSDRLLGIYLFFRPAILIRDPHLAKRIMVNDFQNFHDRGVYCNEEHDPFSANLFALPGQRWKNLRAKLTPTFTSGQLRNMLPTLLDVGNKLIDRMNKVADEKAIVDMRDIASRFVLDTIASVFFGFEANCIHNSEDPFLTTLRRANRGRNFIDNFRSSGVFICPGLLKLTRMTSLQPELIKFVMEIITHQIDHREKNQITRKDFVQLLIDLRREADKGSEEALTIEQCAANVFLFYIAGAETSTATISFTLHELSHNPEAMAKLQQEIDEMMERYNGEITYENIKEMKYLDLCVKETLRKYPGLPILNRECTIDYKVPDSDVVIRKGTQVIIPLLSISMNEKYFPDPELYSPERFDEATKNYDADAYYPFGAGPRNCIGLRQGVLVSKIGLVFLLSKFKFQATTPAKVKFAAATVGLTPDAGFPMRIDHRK
Sequence (Q86QH5 1-679 partner): as the sequence (Q86QH5 1-679 partner) above
Sequence (Q86QH4 1-128 partner): as the sequence (Q86QH4 1-128 partner) above
Quick reference: pIC50 of the listed items.
Give only the number. pIC50 is defined as minus log10 of concentration in molar units.

Here are 2 molecules together with their reported answers.
| Molecule | Reported Measurement |
| --- | --- |
| CC(COc1ccc(Oc2ccccc2)cc1)Oc1ccccn1 (stereo not drawn) | 5.65 |
| CC1(C)C(C=C(Cl)Cl)C1C(=O)OCc1cccc(Oc2ccccc2)c1 (mixture of isomers) | 4.86 |

Let us move to another entry and its pIC50.
Value lookup for pIC50; key = CC1(C)[C@H](C(=O)O[C@H](C#N)c2cccc(Oc3ccccc3)c2)[C@@H]1C=C(Br)Br
4.85
